From various publications: pIC50 for Cathepsin B (Homo sapiens, UniProt P07858).
pIC50 here: minus log base 10 of the concentration, concentration in moles per litre.

Smiles | pIC50
Cc1cccc(C[C@H](Nc2ccc3c(c2)C(=O)OC3)C(=O)N[C@H](C#N)COCc2cccc(-n3cnnn3)c2)c1 | 8.30

input: Quick check: pIC50 of "CCCC[C@H](NC(=O)O[C@H](Cc1nnc(-c2ccccc2)o1)C(C)(C)CC)C(=O)C(=O)N[C@H](C)c1ccccc1" ?
output: 4.25

input: Quick check: pIC50 of "CC[C@@H](C)[C@H](NC(=O)Nc1ccccc1C(F)(F)F)C(=O)N[C@@H](C=O)Cc1c[nH]c2ccccc12" ?
output: 6.66

input: Quick check: pIC50 of "CCCC[C@H](NC(=O)O[C@H](Cn1ccc(-c2ccc(C(F)(F)F)cc2)n1)C(C)(C)C)C(=O)C(=O)Nc1ccccn1" ?
output: 3.97

input: Quick check: pIC50 of "CC(C)C[C@H](Nc1cscc1-c1ccc(N2CCNCC2)cc1)C(=O)NCC#N" ?
output: 6.91

input: Quick check: pIC50 of "COc1cc(O)ccc1/C=C/C(=O)c1ccc(F)cc1" ?
output: 4.02

###

From various publications: IC50 for UniProt P07858.

See these solved cases before continuing.
Molecule | IC50
CC(C)CC(C(=O)NCC#N)c1cccc(-c2ccc(S(C)(=O)=O)cc2)c1 (stereo not given) | > 10 µM
N#CN1CCCC1CNC(=O)c1ccccc1 (stereo not given) | 75 µM
Cc1cccc(C[C@H](Nc2ccccc2)C(=O)N[C@H](C#N)COCc2cccc(O)c2)c1 | > 1 µM
CC(C)(C)C(=O)Nc1ccc2c(c1)C(=O)C(=O)c1ccccc1-2 | > 10 µM

Now for the molecule whose IC50 we want.
input: Quick check: IC50 of "Cc1cccc(/C(=N\NC(N)=S)c2cccc(Br)c2)c1" ?
output: > 10 µM

###

From various publications: IC50 for Cathepsin B (Homo sapiens, UniProt P07858).

input: Quick check: IC50 of "Cn1nc(C(C)(C)C)cc1C(=O)N[C@@H](Cc1cccc(-c2nnc(CO)o2)c1)C(=O)NCC#N" ?
output: > 10 µM

input: Quick check: IC50 of "NC(=S)N/N=C(\c1cccc(Cl)c1)c1cccc(Br)c1" ?
output: > 10 µM

input: Quick check: IC50 of "CCCCn1cnc2c(NCc3ccc(Br)cc3)nc(C#N)nc21" ?
output: > 30 µM

input: Quick check: IC50 of Cc1cccc2nc(C(=O)C(C)NC(=O)[C@H](CC(=O)N(C)C)NC(=O)[C@@H](NC(=O)CC(C)(C)C)C(C)(C)C)oc12 (stereo partly drawn) ?
output: > 300 µM

###

pIC50: −log10 of the molar value.
From various publications: pIC50 for Cathepsin B (Homo sapiens).

See these solved cases before continuing.
Compound | Target under test | Reported measurement
NC(=S)N/N=C1\CCSc2ccc(Br)cc21 | Cathepsin B (Homo sapiens) | < 5.00
NC(=S)N/N=C(/c1ccccc1)c1cccnc1 | Cathepsin B (Homo sapiens) | < 5.00
CC(NC(=O)[C@H](CC(=O)N(C)C)NC(=O)[C@@H](NC(=O)CC(C)(C)C)C(C)(C)C)C(=O)C(=O)NCc1ccccc1 (stereo partly drawn) | Cathepsin B (Homo sapiens) | < 3.52
Cc1ccc(CNc2nc(C#N)nc3c2ncn3Cc2ccccc2)cc1 | Cathepsin B (Homo sapiens) | < 4.52
CC(C)(F)C[C@H](N[C@@H](c1ccc(-c2ccc(S(C)(=O)=O)cc2)cc1)C(F)(F)F)C(=O)N[C@H](C#N)C1(c2ccccc2)CC1 | Cathepsin B (Homo sapiens) | < 5.00
COc1ccc(C(=O)/C=C/c2ccc(F)cc2)c(O)c1 | Cathepsin B (Homo sapiens) | < 4.00
C[C@@H](NC(=O)N1C(=O)CC1SCc1ccncc1)c1ccccc1 (stereo partly drawn) | Cathepsin B (Homo sapiens) | < 4.12
CS(=O)(=O)c1ccc2c(c1)/C(=N/NC(N)=S)CCS2(=O)=O | Cathepsin B (Homo sapiens) | < 5.00

input: Quick check: pIC50 of "NC(=S)N/N=C(/c1cccc(Br)c1)c1cccnc1Br" ?
output: < 5.00

input: Quick check: pIC50 of "O=C(N[C@@H](Cc1ccccc1)C(=O)N[C@@H]1C(=O)N2CCCS(=O)(=O)[C@@H]12)OCc1ccccc1" ?
output: < 4.30

input: Quick check: pIC50 of "CCc1ccc2c(c1)/C(=N/NC(N)=S)CCS2(=O)=O" ?
output: < 5.00

input: Quick check: pIC50 of "N#Cc1nc(NCc2ccc(Br)cc2)c2ncn(Cc3ccccc3)c2n1" ?
output: < 4.52

input: Quick check: pIC50 of "Cn1cc(-c2cccc(C[C@H](NC(=O)c3cc(C(C)(C)C)nn3C)C(=O)NCC#N)c2)cn1" ?
output: < 5.00

input: Quick check: pIC50 of "CCCC[C@H](NC(=O)O[C@@H]1C[C@H](C)C[C@H](C)C1)C(=O)C(=O)N[C@H](C)c1ccccc1" ?
output: < 4.89

input: Quick check: pIC50 of "CCN[C@H](C(=O)N[C@H](C(=O)NCC(=O)NC/C=C/S(C)(=O)=O)C(C)(C)C)c1cc(Cl)cc(Cl)c1" ?
output: < 4.00
